# Tested on: MDA-MB-231 breast
# test-name: NCI-60 one-dose screen, 48 h
# test-conditions: 10 µM
This is part of a sample that, as a whole, favours compounds with a hit. Of some 83,000 tested, about 20% had one in any assay. Calls of active or inactive are those of the source. How the source made its calls: active means growth percent below 10; inactive means the rest.
Outcome codes: active, inactive

| molecule | target-system | class-label |
| --- | --- | --- |
| O=C(Nc1ccc(OCc2nnc(-c3ccccc3)o2)c(F)c1)Nc1ccc(Cl)c(Cl)c1 | MDA-MB-231 breast | inactive |
| CC1(C)CNC(=O)N1 | MDA-MB-231 breast | inactive |
| COc1cc(NS(C)(=O)=O)ccc1Nc1c2ccc(Cl)cc2nc2c(OC)cccc12 | MDA-MB-231 breast | inactive |
| COc1ccc(-c2ccccc2)cc1C(=O)c1ccc(-c2ccccc2)cc1 | MDA-MB-231 breast | inactive |
| CCCCCCCCCCSC(=N)N (tested in a mixture with another compound) | MDA-MB-231 breast | active |
| Oc1ccc(Cn2cc3c(c2-c2ccccc2)CCc2cnoc2-3)cc1 | MDA-MB-231 breast | inactive |
| CCc1ccc(-c2nnc(COc3ccc(-c4nc5ccccc5[nH]4)cc3OC)o2)cc1 | MDA-MB-231 breast | inactive |
| Nc1nc(SCC#CCCl)c2[nH]cnc2n1 | MDA-MB-231 breast | inactive |

Data credit: PubChem BioAssay (NCI)
